Test system: LOU-NH91
Assay: relative viability (nuclei count vs DMSO), 5 days (fraction); higher = more cells survive
Conditions: first compound 0.08 µM
For each of the compounds below, state its relative viability.

Example entries begin here.
CCCCCCCCCCCC1=C(O)C(=O)C=C(O)C1=O [Embelin] + Cc1cc(Nc2cc(N3CCN(C)CC3)nc(Sc3ccc(NC(=O)C4CC4)cc3)n2)n[nH]1 [Tozasertib] (partner 0.1 µM)	0.751
CCCCCCCCCCCC1=C(O)C(=O)C=C(O)C1=O [Embelin] + CC(C)C[C@H](NC(=O)[C@H](Cc1ccccc1)NC(=O)c1cnccn1)B(O)O [Bortezomib] (partner 0.002 µM)	0.554
CCCCCCCCCCCC1=C(O)C(=O)C=C(O)C1=O [Embelin] + C[C@]1(O)C[C@@H](c2nc(-c3ccc4ccc(-c5ccccc5)nc4c3)c3c(N)nccn32)C1 [Linsitinib] (partner 1 µM)	1.02
CCCCCCCCCCCC1=C(O)C(=O)C=C(O)C1=O [Embelin] + CC(=O)c1c(C)c2cnc(Nc3ccc(N4CCNCC4)cn3)nc2n(C2CCCC2)c1=O [Palbociclib] (partner 0.5 µM)	0.551
CCCCCCCCCCCC1=C(O)C(=O)C=C(O)C1=O [Embelin] + C[C@@H](Oc1cc(-c2cnn(C3CCNCC3)c2)cnc1N)c1c(Cl)ccc(F)c1Cl [Crizotinib] (partner 1 µM)	0.764

Task: # lookup: relative viability of CCCCCCCCCCCC1=C(O)C(=O)C=C(O)C1=O [Embelin] + CC(=O)Nc1cccc(-n2c(=O)n(C3CC3)c(=O)c3c(Nc4ccc(I)cc4F)n(C)c(=O)c(C)c32)c1 [Trametinib] (partner 0.02 µM)
Output: 0.785
